Source listed as patent US6525059B1.

Test system: TNF a
Assay method text: LPS stimulation of human PBMs, TNF a by ELISA
Format: cell-based
Experimental setup: LPS-stimulated human PBMs, TNF cell assay; read-out: Human PBM Assay IC50
# 1 = IC50 below 700 nM (exclusive); -1 = IC50 at/above 700 nM

Previously resolved entries follow.
{"Compound structure string": "Cc1cccc(-c2[nH]nc(C(F)(F)F)c2-c2ccncc2)c1", "Category": -1}
{"Compound structure string": "CCc1[nH]nc(-c2cccc(C)c2)c1-c1ccncc1", "Category": 1}
{"Compound structure string": "Cc1ccc(C)c(-c2[nH]nc(C)c2-c2ccncc2)c1", "Category": 1}

Dear colleague, could you confirm whether IC50 of Cc1n[nH]c(-c2ccc(Cl)cc2)c1-c1ccncc1 falls below 700 nM? Thanks. 1

Dear colleague, could you confirm whether IC50 of Cc1cccc(-c2[nH]nc(C)c2-c2ccncc2)c1 falls below 700 nM? Thanks. 1

Dear colleague, could you confirm whether IC50 of Cc1n[nH]c(-c2cccc(Oc3ccccc3)c2)c1-c1ccncc1 falls below 700 nM? Thanks. -1
